B1: library; a variant is named by its letters at N, in order (parent)
chain: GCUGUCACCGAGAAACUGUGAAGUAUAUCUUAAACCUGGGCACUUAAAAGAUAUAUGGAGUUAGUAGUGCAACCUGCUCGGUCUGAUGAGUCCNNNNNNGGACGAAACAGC

variants of: B1; test: normalized RNA/DNA level with ligand (relative to sTRSVctl = 100) (log10 (% of sTRSVctl)); HEK293T; ligand: cyclic di-GMP (c-di-GMP-II aptamer); ligand concentration (+) RNA-Seq: 1 mM; higher = less ribozyme self-cleavage, higher mRNA level; conditions: reporter: mCherry (pCS4076), ligand present: yes
normalized RNA/DNA level with ligand (log10) values for the variants below.
Form: value (number only, do not type unit).

Here is how some variants turned out for normalized RNA/DNA level with ligand (log10).
residue_change | readout_value
UCACAA | 1.72
ACGAUU | 1.41
GUCAGC | 1.83
AAGGAG | 1.67
UGUGGC | 1.89
CUGACA | 1.7
AUCGGU | 1.78
GCAGCU | 1.78

Request: Would you kindly share the measured normalized RNA/DNA level with ligand (log10) for AUCAGC ?
Response: 1.88

Request: Would you kindly share the measured normalized RNA/DNA level with ligand (log10) for GUGCAG ?
Response: 1.89

Request: Would you kindly share the measured normalized RNA/DNA level with ligand (log10) for ACGGAG ?
Response: 1.61

These measurements were taken from the supplement of paper PMC6757056.
